STUDY TARGET: T1, biotinylated mesothelin ECD (Homo sapiens, UniProt Q13421)
T1 construct: made in house; host or cells: HEK293F (transient)
T1 sequence (Q13421 with tags, fused parts or gaps): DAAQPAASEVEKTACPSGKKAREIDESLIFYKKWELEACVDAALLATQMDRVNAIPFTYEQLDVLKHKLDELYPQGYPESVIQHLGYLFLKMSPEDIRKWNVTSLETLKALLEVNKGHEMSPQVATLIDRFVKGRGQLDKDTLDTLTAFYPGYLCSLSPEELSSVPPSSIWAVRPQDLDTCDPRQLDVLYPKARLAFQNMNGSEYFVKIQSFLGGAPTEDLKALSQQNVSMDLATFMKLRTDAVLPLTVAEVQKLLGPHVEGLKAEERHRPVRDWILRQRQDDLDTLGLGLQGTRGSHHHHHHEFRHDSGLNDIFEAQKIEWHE
PROTOCOL: Surface plasmon resonance (Biacore T200) binding affinity of purified scFvs
RUN CONDITIONS: 1:1 Binding or Steady State Affinity fit
pKd: −log10 of the molar value.
EXPERIMENTAL READOUT: pKd

{"columns": ["MOLECULE", "EXPERIMENTAL READOUT", "VAL"],
 "data": [
  ["M14: human anti-mesothelin scFv SEQ ID NO: 52; full CAR SEQ ID NO: 76 (protein) scFv: QVQLVQSGAEVRAPGASVKISCKASGFTFRGYYIHWVRQAPGQGLEWMGIINPSGGSRAYAQKFQGRVTMTRDTSTSTVYMELSSLRSDDTAMYYCARTASCGGDCYYLDYWGQGTLVTVSSGGGGSGGGGSGGGGSGGGGSDIQMTQSPPTLSASVGDRVTITCRASENVNIWLAWYQQKPGKAPKLLIYKSSSLASGVPSRFSGSGSGAEFTLTISSLQPDDFATYYCQQYQSYPLTFGGGTKVDIK", "pKd", 9.05]
]}

Reference source: patent US11999794B2
